# Test system: HCT-116
# Protocol Notes: Resistance index, ratio of IC50 for p53-deficient human HCT116 cells to IC50 for human HCT116 cells
# Format: functional
Just a reminder that ties go to n: only Ratio IC50 strictly below 1 counts as y.

# Compound, Label
data = [
    ("Cl.O=C1c2ccccc2C(=O)c2c1c(O)c1[nH]cc(CNC3CCNCC3)c1c2O", "y"),
    ("Cl.O=C1c2ccccc2C(=O)c2c1c(O)c1[nH]cc(CNC3CCCNC3)c1c2O (racemic)", "n"),
    ("Cl.NC1CCN(Cc2c[nH]c3c(O)c4c(c(O)c23)C(=O)c2ccccc2C4=O)CC1", "n"),
    ("Cl.O=C1c2ccccc2C(=O)c2c1c(O)c1[nH]cc(CN[C@H]3CCNC3)c1c2O", "n"),
    ("Cl.N[C@@H]1CCN(Cc2c[nH]c3c(O)c4c(c(O)c23)C(=O)c2ccccc2C4=O)C1", "n"),
    ("O=C1c2ccccc2C(=O)c2c1c(O)c1[nH]cc(CN3CCNCC3)c1c2O", "n"),
    ("Cl.O=C1c2ccccc2C(=O)c2c1c(O)c1[nH]cc(CN[C@@H]3CCNC3)c1c2O", "y"),
    ("Cl.O=C1c2ccccc2C(=O)c2c1c(O)c1[nH]cc(CN3C[C@@H]4C[C@H]3CN4)c1c2O", "n"),
    ("Cl.N[C@H]1CCN(Cc2c[nH]c3c(O)c4c(c(O)c23)C(=O)c2ccccc2C4=O)C1", "n"),
]

----------
# Protocol Notes: Toxicity in mouse P388 cells allografted mouse asessed as increase in life span measured as survival time compound dosed ip for 5 days
# Format: organism-based
# Details: in vivo
Property: MTD at 120 h

# Mol, Property, Reading
rows = [
    ("Cl.O=C1c2ccccc2C(=O)c2c1c(O)c1[nH]cc(CN[C@@H]3CCNC3)c1c2O", "MTD at 120 h", "45 mg/kg"),
]

----------
# Test system: Calf thymus DNA
# Protocol Notes: Binding affinity to calf thymus DNA by fluorescence titration
# Assay type: nucleic-acid assay
# Details: Bos taurus

# Mol, System Tested, Kb / ×10⁵ /M
measured = [
    ("Cl.O=C1c2ccccc2C(=O)c2c1c(O)c1[nH]cc(CN[C@H]3CCNC3)c1c2O", "Calf thymus DNA", 11),
    ("Cl.O=C1c2ccccc2C(=O)c2c1c(O)c1[nH]cc(CN[C@@H]3CCNC3)c1c2O", "Calf thymus DNA", 10),
    ("Cl.N[C@@H]1CCN(Cc2c[nH]c3c(O)c4c(c(O)c23)C(=O)c2ccccc2C4=O)C1", "Calf thymus DNA", 3.4),
    ("Cl.N[C@H]1CCN(Cc2c[nH]c3c(O)c4c(c(O)c23)C(=O)c2ccccc2C4=O)C1", "Calf thymus DNA", 3.5),
]

Hey, just so you know, these numbers are from ChEMBL document CHEMBL3352434.
